System: pSTAT1(2)-luciferase reporter in HeLa cells triggered with human OSM
test.protocol: JAK-STAT signalling assay
Assay type: cell-based
run.conditions: Homo sapiens, HeLa, HeLa cells, pSTAT1(2)-luciferase reporter, human OSM 33 ng/mL; read-out: JAK-STAT IC50
Reported IC50 is given for each of the following compounds.

Cc1cc(OCC#N)ccc1N(C)c1cc2c(cn1)ncn2C	> 1 µM
Cc1cc(C#N)ccc1N(C)c1cc2c(cn1)ncn2C	> 1 µM
Cc1cc(CO)ccc1N(C)c1cc2c(cn1)ncn2C	> 1 µM
CCc1cc(C(=O)NCCN(C)C)ccc1N(C)c1cc2c(cn1)ncn2C	> 1 µM
CCc1cc(C(O)C(F)(F)F)ccc1N(C)c1cc2c(cn1)ncn2C (stereo not drawn)	> 1 µM

Query :: Query (compound): `CCC(=O)N1CC=C(c2ccc(N(C)c3cc4c(cn3)ncn4C)c(CC)c2)CC1` ; field requested: IC50
Result :: 0.001 to 0.5 µM

Query :: Input `CCc1cc(-c2cnc(C(C)C)nc2)ccc1N(C)c1cc2c(cn1)ncn2C`
Result :: > 1 µM

Query :: Input `CCc1cc(O[C@@H]2CCN(S(C)(=O)=O)C2)ccc1N(C)c1cc2c(cn1)ncn2C`
Result :: 0.501 to 1 µM

Query :: Input `CCCn1cc(-c2ccc(N(C)c3cc4c(cn3)ncn4C)c(CC)c2)cn1`
Result :: 0.501 to 1 µM

Query :: Input `CCc1cc(CNC(C)=O)ccc1N(C)c1cc2c(cn1)ncn2C`
Result :: > 1 µM

* * *

Reported IC50 is given for each of the following molecules.
test.system: human JAK3 (Homo sapiens)
Construct: catalytic domain (amino acids 781-1124; catalog number PV3855)
test.protocol: JAK3 inhibition assay
run.conditions: recombinant human JAK3 catalytic domain; polyGT substrate

CCc1cc(C2=CCN(C(=O)C(O)C(F)(F)F)CC2)ccc1N(C)c1cc2c(cn1)ncn2C (stereo not shown) [Compound 230]	0.01 to 100 nM
CCc1cc(C2CN(C(=O)C(F)(F)F)C2)ccc1N(C)c1cc2c(cn1)ncn2C [Compound 347]	101 to 500 nM
CCc1cc(C2CCN(C(=O)COC)CC2)ccc1N(C)c1cc2c(cn1)ncn2C [Compound 226]	101 to 500 nM

Moving on to the next molecule.
Query :: Form entry - test system: human JAK3 (Homo sapiens); read-out: IC50; molecule: CCc1cc(-c2cnc(N(C)C)nc2)ccc1N(C)c1cc2c(cn1)ncn2C [Compound 129]
Result :: > 1000 nM

* * *

test.system: human JAK2 (Homo sapiens)
Construct: catalytic domain (amino acids 808-1132; catalog number PV4210); GST
test.protocol: JAK2 inhibition assay (polyGT substrate / Ulight-JAK1 peptide)
run.conditions: recombinant human JAK2 catalytic domain; polyGT or Ulight-JAK1 peptide assay
Reported IC50 is given for each of the following compounds.

Examples with their reported IC50 follow.
Cc1c(OCC(=O)N(C)C)cccc1N(C)c1cc2c(cn1)ncn2C [Compound 65]	> 1000 nM
CCc1cc(C(=O)N2CCN(C)CC2)ccc1N(C)c1cc2c(cn1)ncn2C [Compound 100]	> 1000 nM
CCc1cc(-c2ccc(C#N)s2)ncc1N(C)c1cc2c(cn1)ncn2C [Compound 301]	0.01 to 100 nM
CCc1cc(C(=O)NCC#N)ccc1N(C)c1cc2c(cn1)ncn2C [Compound 120]	101 to 500 nM

Moving on to the next compound.
Query :: Query (compound): CCc1cc(CNS(=O)(=O)C(F)F)c(F)cc1N(C)c1cc2c(cn1)ncn2C [Compound 327] ; field requested: IC50
Result :: 0.01 to 100 nM

* * *

test.system: human JAK2 (Homo sapiens, UniProt O60674)
Construct: catalytic domain (amino acids 808-1132; catalog number PV4210); GST
Sequence (O60674 808-1132): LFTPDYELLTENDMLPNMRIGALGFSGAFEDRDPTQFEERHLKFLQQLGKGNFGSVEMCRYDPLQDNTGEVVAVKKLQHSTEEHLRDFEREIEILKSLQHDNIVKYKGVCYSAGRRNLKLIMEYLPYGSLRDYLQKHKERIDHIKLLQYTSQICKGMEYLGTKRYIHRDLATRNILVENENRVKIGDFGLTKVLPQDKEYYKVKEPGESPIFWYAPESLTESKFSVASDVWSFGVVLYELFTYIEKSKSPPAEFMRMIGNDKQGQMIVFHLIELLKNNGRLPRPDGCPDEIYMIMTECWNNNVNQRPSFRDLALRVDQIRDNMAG
test.protocol: JAK2 inhibition assay (polyGT substrate / Ulight-JAK1 peptide)
run.conditions: recombinant human JAK2 catalytic domain; polyGT or Ulight-JAK1 peptide assay
Reported IC50 is given for each of the following compounds.

Examples with their reported IC50 follow.
CCc1cc(CC(=O)N2CC(C)(C)C2)ccc1N(C)c1cc2c(cn1)ncn2C	> 1000 nM
CCCOc1ccc(N(C)c2cc3c(cn2)ncn3C)cc1	501 to 1000 nM
CCc1ccc(C(N)=O)cc1N(C)c1cc2c(cn1)ncn2C	> 1000 nM

Moving on to the next compound.
Query :: Query (compound): `CCc1ncccc1N(C)c1cc2c(cn1)ncn2C` ; field requested: IC50
Result :: > 1000 nM

* * *

test.system: human JAK3 (Homo sapiens, UniProt P52333)
Construct: catalytic domain (amino acids 781-1124; catalog number PV3855)
Sequence (P52333 781-1124): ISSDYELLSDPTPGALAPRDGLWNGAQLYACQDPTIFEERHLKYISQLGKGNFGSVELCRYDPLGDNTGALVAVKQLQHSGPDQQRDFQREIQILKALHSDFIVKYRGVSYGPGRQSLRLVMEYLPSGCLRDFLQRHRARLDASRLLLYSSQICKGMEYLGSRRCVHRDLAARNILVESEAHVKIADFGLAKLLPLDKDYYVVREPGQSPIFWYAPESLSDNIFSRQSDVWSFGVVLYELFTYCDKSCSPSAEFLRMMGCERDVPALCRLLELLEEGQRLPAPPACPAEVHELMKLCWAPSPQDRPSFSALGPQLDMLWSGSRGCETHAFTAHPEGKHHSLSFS
test.protocol: JAK3 inhibition assay
run.conditions: recombinant human JAK3 catalytic domain; polyGT substrate
Reported IC50 is given for each of the following compounds.

Examples with their reported IC50 follow.
CN(c1cc2c(cn1)ncn2C)c1ccccc1F	> 1000 nM
CCc1cc(C2=CCN(C(=O)C(C)(C)O)CC2)ccc1N(C)c1cc2c(cn1)ncn2C	101 to 500 nM
CCc1cc(C(=O)NC#N)ccc1N(C)c1cc2c(cn1)ncn2C	101 to 500 nM
CCc1cc(C(=O)NCC2CCCCN2C)ccc1N(C)c1cc2c(cn1)ncn2C (stereo not drawn)	> 1000 nM
CCc1cc(C2CN(C(C)=O)C2)ncc1N(C)c1cc2c(cn1)ncn2C	> 1000 nM
CCCn1cc(-c2ccc(N(C)c3cc4c(cn3)ncn4C)c(CC)c2)cn1	501 to 1000 nM
COC(=O)NCc1ccc(N(C)c2cc3c(cn2)ncn3C)c(F)c1	> 1000 nM
CCc1cc(C2=CCN(C(=O)C3(C#N)CC3)CC2)ccc1N(C)c1cc2c(cn1)ncn2C	101 to 500 nM

Query :: Query (compound): `CCc1cc(C2=CCN(C(=O)COC)CC2)ccc1N(C)c1cc2c(cn1)ncn2C` ; field requested: IC50
Result :: 0.01 to 100 nM

Query :: Input `CCc1cc(CNS(=O)(=O)N2CCC(F)(F)C2)ccc1N(C)c1cc2c(cn1)ncn2C`
Result :: 101 to 500 nM

Query :: Input `CCc1cc(N2CCC(F)(F)C2)ncc1N(C)c1cc2c(cn1)ncn2C`
Result :: 0.01 to 100 nM

Query :: Input `CCc1cc(CNC(=O)NC)ccc1N(C)c1cc2c(cn1)ncn2C`
Result :: > 1000 nM

Query :: Input `CCc1cc(OCC#N)ccc1N(C)c1cc2c(cn1)ncn2C`
Result :: 101 to 500 nM

Query :: Input `CCc1cc(-c2cnn(CCN3CCCC3)c2)ccc1N(C)c1cc2c(cn1)ncn2C`
Result :: > 1000 nM

Query :: Input `CCc1cc(C2CCOCC2)ccc1N(C)c1cc2c(cn1)ncn2C`
Result :: 101 to 500 nM

Query :: Input `COc1cc(-c2cccs2)ncc1N(C)c1cc2c(cn1)ncn2C`
Result :: 101 to 500 nM

Query :: Input `CCc1cc(CNC(=O)C(F)F)c(F)cc1N(C)c1cc2c(cn1)ncn2C`
Result :: 101 to 500 nM

Query :: Input `CCc1cc(C2CN(S(C)(=O)=O)C2)ccc1N(C)c1cc2c(cn1)ncn2C`
Result :: 0.01 to 100 nM

* * *

test.system: human JAK3 (Homo sapiens)
Construct: catalytic domain (amino acids 781-1124; catalog number PV3855); purchased Invitrogen PV3855
test.protocol: JAK3 inhibition assay
Assay type: biochemical
run.conditions: recombinant human JAK3 catalytic domain; polyGT substrate
value.kind: IC50

Examples with their reported IC50 follow.
CCc1ccccc1N(Cc1ccccn1)c1cc2c(cn1)ncn2C	> 1000 nM
CCc1cc(CNC(=O)COC)ccc1N(C)c1cc2c(cn1)ncn2C	> 1000 nM
CCc1cc(-c2ccc(C#N)cc2)ccc1N(C)c1cc2c(cn1)ncn2C	101 to 500 nM
CCc1cc(-c2cnn(Cc3ccccc3)c2)ccc1N(C)c1cc2c(cn1)ncn2C	101 to 500 nM
CCc1cc(-c2cnn(Cc3ccc(Cl)cc3)c2)ccc1N(C)c1cc2c(cn1)ncn2C	101 to 500 nM
CCc1cc(CNS(=O)(=O)N2CCOCC2)ccc1N(C)c1cc2c(cn1)ncn2C	101 to 500 nM

Query :: Query (compound): `CN(c1cc2c(cn1)ncn2C)c1c(F)cc(C#N)cc1F` ; field requested: IC50
Result :: > 1000 nM

Query :: Input `CCc1cc(-c2cccnc2)ccc1N(C)c1cc2c(cn1)ncn2C`
Result :: 501 to 1000 nM

Query :: Input `Cc1ccc(OCCCC#N)cc1N(C)c1cc2c(cn1)ncn2C`
Result :: 101 to 500 nM

* * *

Reported IC50 is given for each of the following molecules.
Tested on: pSTAT1(2)-luciferase reporter in HeLa cells triggered with human OSM
test.protocol: JAK-STAT signalling assay
Format: cell-based
run.conditions: Homo sapiens, HeLa, HeLa cells, pSTAT1(2)-luciferase reporter, human OSM 33 ng/mL; read-out: JAK-STAT IC50

Examples with their reported IC50 follow.
CCc1cc(Cn2ccnc2)ccc1N(C)c1cc2c(cn1)ncn2C	501 to 1000 nM
CCc1cc(C2=CCN(C(=O)NC3COC3)CC2)ccc1N(C)c1cc2c(cn1)ncn2C	> 1000 nM
CCc1cc(C2=CCN(C(=O)NC)CC2)ccc1N(C)c1cc2c(cn1)ncn2C	1 to 500 nM
CCc1cc(-c2cnc(OC3COC3)nc2)ccc1N(C)c1cc2c(cn1)ncn2C	> 1000 nM

Query :: Form entry - test system: pSTAT1(2)-luciferase reporter in HeLa cells triggered with human OSM; read-out: IC50; molecule: `CCc1cc(C2CCOCC2)ccc1N(C)c1cc2c(cn1)ncn2C`
Result :: 1 to 500 nM

Query :: Input `CCc1cc(-c2cncs2)ccc1N(C)c1cc2c(cn1)ncn2C`
Result :: 1 to 500 nM
